Data origin: ChEMBL document CHEMBL3102739

Tested on: SK-MEL-28
Test: Growth inhibition of human SK-MEL-28 cells after 48 hrs by SRB assay
Type: functional
Assay Conditions: SK-MEL-28, 48 h
Record form. Attribute: GI50. Fill in for each entry.
Note: unit µM is implicit; provide only the numeric part.

Sample COc1ccc(/C=C\c2cc(OC)c(OC)c(OC)c2)cc1O — what was its GI50?
0.008

What value of GI50 has been recorded for this entry: COc1ccc(-c2nn[nH]c2-c2cc(OC)c3c(c2OC)OCO3)cc1
1.78

Recorded GI50 for COc1ccc(-c2cnnn2-c2cc(OC)c3c(c2)OCO3)cc1 , please?
0.725

Please give the measured GI50 for this compound: COc1ccc(-c2nn[nH]c2-c2cc(OC)c3c(c2)OCO3)cc1
0.035
